biological target: JAK 1 (Homo sapiens, UniProt P23458); test: Biochemical potency on JAK1, TR-FRET LANCE Ultra kinase assay (examples 1-99); conditions: ATP at Km (20 μM), read-out: JAK1 inhibitory activity (pIC50 class) (converted)
Sequence (P23458 whole entry): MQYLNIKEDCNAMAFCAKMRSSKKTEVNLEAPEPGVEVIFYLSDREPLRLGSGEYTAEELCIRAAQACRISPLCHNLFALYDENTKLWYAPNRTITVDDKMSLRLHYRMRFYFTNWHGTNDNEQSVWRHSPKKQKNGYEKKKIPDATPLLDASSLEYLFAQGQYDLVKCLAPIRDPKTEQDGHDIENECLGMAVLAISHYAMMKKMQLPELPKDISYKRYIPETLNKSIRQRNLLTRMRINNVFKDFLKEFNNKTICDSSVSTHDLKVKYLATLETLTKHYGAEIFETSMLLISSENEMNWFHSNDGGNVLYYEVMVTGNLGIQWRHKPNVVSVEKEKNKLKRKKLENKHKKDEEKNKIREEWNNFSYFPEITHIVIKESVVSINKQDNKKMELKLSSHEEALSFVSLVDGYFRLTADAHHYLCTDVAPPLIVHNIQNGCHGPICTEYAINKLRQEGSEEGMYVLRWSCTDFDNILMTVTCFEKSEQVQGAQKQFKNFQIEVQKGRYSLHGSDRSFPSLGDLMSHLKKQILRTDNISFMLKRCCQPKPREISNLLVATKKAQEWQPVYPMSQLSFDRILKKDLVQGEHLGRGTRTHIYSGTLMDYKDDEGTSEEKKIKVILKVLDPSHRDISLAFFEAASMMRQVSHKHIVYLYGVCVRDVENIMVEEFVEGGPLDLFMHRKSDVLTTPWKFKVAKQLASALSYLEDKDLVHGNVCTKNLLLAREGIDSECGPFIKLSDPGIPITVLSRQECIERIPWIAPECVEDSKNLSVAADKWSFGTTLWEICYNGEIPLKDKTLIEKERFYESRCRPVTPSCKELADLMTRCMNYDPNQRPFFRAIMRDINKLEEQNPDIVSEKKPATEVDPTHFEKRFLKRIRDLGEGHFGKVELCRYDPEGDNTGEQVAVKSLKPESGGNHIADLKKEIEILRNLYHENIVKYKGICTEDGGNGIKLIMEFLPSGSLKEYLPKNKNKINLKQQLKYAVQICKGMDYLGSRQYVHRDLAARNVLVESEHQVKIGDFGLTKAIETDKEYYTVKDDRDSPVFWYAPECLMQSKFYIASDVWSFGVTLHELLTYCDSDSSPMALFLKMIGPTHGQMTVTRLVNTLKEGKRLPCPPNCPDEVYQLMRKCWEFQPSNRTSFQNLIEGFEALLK
recorded endpoint: IC50

Completed entries (count: 7):
Input: System JAK 1 (Homo sapiens, UniProt P23458). Read-out IC50. Item COc1cc(O)ccc1-n1nc(C)c2cnc(-c3cnn4cccnc34)cc21 . Report value.
Output: 5.01 to 50.1 nM

Input: Report its IC50 with JAK 1 (Homo sapiens, UniProt P23458) as the test system: COc1ccc(Cl)cc1-n1nc(N)c2cnc(-c3cnn4cccnc34)cc21
Output: ≤ 5.01 nM

Input: Give measured IC50 for COc1ccc(Cl)cc1-n1nc(N2CC(CO)C2)c2cnc(-c3cnn4cccnc34)cc21 (JAK 1 (Homo sapiens, UniProt P23458)).
Output: 5.01 to 50.1 nM

Input: State recorded IC50 with JAK 1 (Homo sapiens, UniProt P23458), entry CSc1ccc(OC(F)F)c(-n2nc(C(=O)NCCCN(C)C)c3cnc(-c4cnn5cccnc45)cc32)c1 , no comment.
Output: ≤ 5.01 nM

Input: Determine reported IC50 for N[C@H]1C[C@@H](NC(=O)c2nn(-c3cc(Cl)ccc3OC(F)F)c3cc(-c4cnn5cccnc45)ncc23)C1 ; test system: JAK 1 (Homo sapiens, UniProt P23458).
Output: 5.01 to 50.1 nM

Input: Using JAK 1 (Homo sapiens, UniProt P23458) as the test system, report measured IC50 of Cc1nn(-c2cc(Cl)ccc2SC(F)F)c2cc(-c3cnn4cccnc34)ncc12 .
Output: 5.01 to 50.1 nM

Input: Param request: IC50 | system JAK 1 (Homo sapiens, UniProt P23458) | item COCCSc1ccc(OC(F)F)c(-n2nc(C)c3cnc(Nc4ncc[nH]c4=O)cc32)c1
Output: 5.01 to 50.1 nM

Here is the next item to consider.
Input: Give IC50; test system JAK 1 (Homo sapiens, UniProt P23458); compound COc1ccc(Cl)cc1-n1nc(N2CCN(C(C)=O)CC2)c2cnc(-c3cnn4cccnc34)cc21
Output: 5.01 to 50.1 nM

---

Collected IC50 values appear next to each entry.
target: TYK2 (Homo sapiens, UniProt P29597); assay: Biochemical potency on Tyk2, TR-FRET LANCE Ultra kinase assay (examples 1-99); settings: ATP at Km (12 μM), read-out: Tyk2 inhibitory activity (pIC50 class) (converted)
Sequence (P29597 whole entry): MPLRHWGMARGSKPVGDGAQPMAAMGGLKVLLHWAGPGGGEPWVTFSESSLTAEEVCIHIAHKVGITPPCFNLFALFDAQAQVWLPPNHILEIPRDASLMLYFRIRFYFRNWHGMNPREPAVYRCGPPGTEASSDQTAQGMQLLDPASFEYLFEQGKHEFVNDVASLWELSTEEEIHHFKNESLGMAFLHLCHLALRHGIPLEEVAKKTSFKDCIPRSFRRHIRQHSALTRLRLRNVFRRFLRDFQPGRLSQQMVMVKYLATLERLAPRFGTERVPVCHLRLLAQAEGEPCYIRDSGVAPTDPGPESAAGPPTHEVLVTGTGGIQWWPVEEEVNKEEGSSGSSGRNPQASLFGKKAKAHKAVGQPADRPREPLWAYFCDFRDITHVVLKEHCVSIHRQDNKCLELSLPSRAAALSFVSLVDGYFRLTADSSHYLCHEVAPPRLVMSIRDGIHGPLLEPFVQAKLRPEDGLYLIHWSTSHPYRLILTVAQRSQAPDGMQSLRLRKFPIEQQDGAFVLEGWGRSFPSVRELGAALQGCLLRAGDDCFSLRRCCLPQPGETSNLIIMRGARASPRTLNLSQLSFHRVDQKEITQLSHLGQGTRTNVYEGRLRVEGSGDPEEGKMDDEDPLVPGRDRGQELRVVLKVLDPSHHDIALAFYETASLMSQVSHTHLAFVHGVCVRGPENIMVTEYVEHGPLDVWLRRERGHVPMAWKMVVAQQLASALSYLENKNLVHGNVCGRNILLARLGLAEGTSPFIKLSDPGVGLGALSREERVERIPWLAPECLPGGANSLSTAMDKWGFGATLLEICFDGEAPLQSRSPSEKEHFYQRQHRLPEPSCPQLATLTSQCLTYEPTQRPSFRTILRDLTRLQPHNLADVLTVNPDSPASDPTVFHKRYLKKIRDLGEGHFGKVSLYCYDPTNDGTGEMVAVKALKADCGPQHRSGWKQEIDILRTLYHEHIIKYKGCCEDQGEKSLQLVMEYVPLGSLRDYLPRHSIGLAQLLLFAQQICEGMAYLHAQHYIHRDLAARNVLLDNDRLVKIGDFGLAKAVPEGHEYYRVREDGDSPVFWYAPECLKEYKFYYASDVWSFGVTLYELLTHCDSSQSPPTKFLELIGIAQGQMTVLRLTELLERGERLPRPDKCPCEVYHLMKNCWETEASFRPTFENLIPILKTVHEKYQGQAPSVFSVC

Record excerpt, results attached:
Input: Return value of IC50 for input CNc1nc(-c2cnn3cccnc23)cc2c1cnn2-c1cc(Cl)ccc1OC [Example 52] , no commentary.
Output: > 50.1 nM

Input: Return the recorded IC50 value; entry: Cc1nn(-c2cc(S(C)(=O)=O)ccc2OC(F)F)c2cc(-c3cnn4cccnc34)ncc12 [Example 26]
Output: 5.01 to 50.1 nM

Input: Return IC50 for the following compound: Cc1nn(-c2cc(S(=O)(=O)CCN3CCCCC3)ccc2OC(F)F)c2cc(-c3cnn4cccnc34)ncc12 [Example 23]
Output: > 50.1 nM

Input: Look up IC50 of COc1cc(O)c(Cl)cc1-n1nc(C)c2cnc(-c3cnn4cccnc34)cc21 [Example 59] and report it.
Output: 5.01 to 50.1 nM

Input: For the compound Cc1nn(-c2cc(Cl)ccc2OC2CC2)c2cc(-c3cnn4cccnc34)ncc12 [Example 7] , report IC50.
Output: 5.01 to 50.1 nM

API: the following record is the query input.
Input: Fill in reported IC50 for this entry: COc1ccc(S(=O)(=O)NCC2CN(C)C2)cc1-n1nc(C)c2cnc(-c3cnn4cccnc34)cc21 [Example 17]
Output: > 50.1 nM

---

Each item that follows carries a reported IC50.
Molecular target: JAK 3 (Homo sapiens, UniProt P52333)
Sequence (P52333 whole entry): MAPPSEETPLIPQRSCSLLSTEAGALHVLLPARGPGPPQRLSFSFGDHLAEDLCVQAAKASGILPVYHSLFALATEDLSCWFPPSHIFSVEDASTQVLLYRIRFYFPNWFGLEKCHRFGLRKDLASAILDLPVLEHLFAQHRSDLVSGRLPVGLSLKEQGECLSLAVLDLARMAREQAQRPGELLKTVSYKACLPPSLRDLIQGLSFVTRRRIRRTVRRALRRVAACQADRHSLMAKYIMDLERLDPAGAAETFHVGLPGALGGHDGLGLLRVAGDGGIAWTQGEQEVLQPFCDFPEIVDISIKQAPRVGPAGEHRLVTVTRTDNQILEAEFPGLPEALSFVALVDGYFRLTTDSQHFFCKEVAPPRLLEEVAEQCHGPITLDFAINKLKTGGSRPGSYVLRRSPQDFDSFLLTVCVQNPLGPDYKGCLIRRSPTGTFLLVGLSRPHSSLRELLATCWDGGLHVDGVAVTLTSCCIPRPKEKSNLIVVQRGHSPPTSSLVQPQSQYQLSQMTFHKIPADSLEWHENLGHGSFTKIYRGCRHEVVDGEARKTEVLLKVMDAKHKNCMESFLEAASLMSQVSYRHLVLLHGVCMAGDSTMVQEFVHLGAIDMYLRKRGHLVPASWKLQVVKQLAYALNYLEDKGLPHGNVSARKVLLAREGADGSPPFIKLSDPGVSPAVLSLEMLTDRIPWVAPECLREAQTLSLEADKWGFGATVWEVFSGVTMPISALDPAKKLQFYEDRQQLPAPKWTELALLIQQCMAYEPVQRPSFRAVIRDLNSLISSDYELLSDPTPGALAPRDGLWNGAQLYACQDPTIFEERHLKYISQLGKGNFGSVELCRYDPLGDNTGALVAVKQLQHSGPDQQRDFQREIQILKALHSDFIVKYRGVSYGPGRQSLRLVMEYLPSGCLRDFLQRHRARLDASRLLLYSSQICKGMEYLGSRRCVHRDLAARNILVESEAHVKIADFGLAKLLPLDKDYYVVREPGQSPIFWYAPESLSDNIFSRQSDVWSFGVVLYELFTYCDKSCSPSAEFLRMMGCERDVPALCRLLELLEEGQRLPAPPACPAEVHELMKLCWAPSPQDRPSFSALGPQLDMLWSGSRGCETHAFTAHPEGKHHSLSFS
Test: Biochemical potency on JAK3, TR-FRET LANCE Ultra kinase assay (examples 1-99)
Conditions: ATP at Km (0.2 μM), read-out: JAK3 inhibitory activity (pIC50 class) (converted)
Method: The objective of this study was to assess the capability of compounds to inhibit all 4 JAK isoforms activity in a cell-free environment. Assay for JAK 1, JAK 2, JAK 3 and TYK2 were performed by Time-resolved fluorescence resonance energy transfer (TR-FRET) technology. It consists in the interaction of two labelled binding partners detected by the energy transfer from an excited donor to an acceptor dye and measurement of light emission by the acceptor dye. LANCE Ultra kinase assay was used. […]

Input: Respond only with IC50 recorded for Cc1nn(-c2cc(S(C)(=O)=O)ccc2OC(F)F)c2cc(-c3cnn4cccnc34)ncc12
Output: ≤ 5.01 nM

Input: Given the molecule CC(=O)N1CCC(Sc2ccc(OC(F)F)c(-n3nc(C)c4cnc(-c5cnn6cccnc56)cc43)c2)CC1 , write its reported IC50.
Output: 5.01 to 50.1 nM

Input: Give the measured IC50 for Cc1nn(-c2cc(S(=O)(=O)CCCN(C)C)ccc2OC(F)F)c2cc(-c3cnn4cccnc34)ncc12
Output: 5.01 to 50.1 nM

# context switch: different molecule, same IC50
Input: Return value of IC50 for input OCc1nn(-c2cc(Cl)ccc2OC(F)F)c2cc(-c3cnn4cccnc34)ncc12 , no commentary.
Output: ≤ 5.01 nM

---

Molecular target: JAK 1 (Homo sapiens, UniProt P23458)
Experiment: Biochemical potency on JAK1, TR-FRET LANCE Ultra kinase assay (examples 1-99)
Settings: ATP at Km (20 μM), read-out: JAK1 inhibitory activity (pIC50 class) (converted)
Procedure: The objective of this study was to assess the capability of compounds to inhibit all 4 JAK isoforms activity in a cell-free environment. Assay for JAK 1, JAK 2, JAK 3 and TYK2 were performed by Time-resolved fluorescence resonance energy transfer (TR-FRET) technology. It consists in the interaction of two labelled binding partners detected by the energy transfer from an excited donor to an acceptor dye and measurement of light emission by the acceptor dye. LANCE Ultra kinase assay was used. […]
recorded endpoint: IC50

Here is how some compounds turned out for IC50.
Input: Tell us which IC50 value is on record for O=C(c1nn(-c2cc(Cl)ccc2OC(F)F)c2cc(-c3cnn4cccnc34)ncc12)N1CCS(=O)(=O)CC1 [Example 35]
Output: 5.01 to 50.1 nM

Input: Consider the compound CC(=O)N1CCC(S(=O)(=O)c2ccc(OC(F)F)c(-n3nc(C)c4cnc(-c5cnn6cccnc56)cc43)c2)C1 (stereo not shown) [Example 24] . State its measured IC50.
Output: 5.01 to 50.1 nM

Input: Give the reported IC50 for this compound. Cc1nn(-c2cc(SC3COC3)ccc2OC(F)F)c2cc(-c3cnn4cccnc34)ncc12 [Example 73]
Output: ≤ 5.01 nM

Input: Determine from records and report IC50 for CN(C)Cc1nn(-c2cc(Cl)ccc2OC(F)F)c2cc(-c3cnn4cccnc34)ncc12 [Example 30]
Output: 5.01 to 50.1 nM

Input: Find the measured IC50 of Cc1nn(-c2cc(S(=O)(=O)CC(N)=O)ccc2OC(F)F)c2cc(-c3cnn4cccnc34)ncc12 [Example 70] and report it.
Output: 5.01 to 50.1 nM

Continuing:
Input: Give the reported value of IC50 for this record: CNC(=O)c1nn(-c2cc(Cl)ccc2OC(F)F)c2cc(-c3cnn4cccnc34)ncc12 [Example 33]
Output: ≤ 5.01 nM

Input: Supply recorded IC50 for COc1ccc(F)cc1-n1nc(C(=O)NCCCN(C)C)c2cnc(-c3cnn4cccnc34)cc21 [Example 38] here.
Output: 5.01 to 50.1 nM

Input: Check the records and state IC50 for Cc1nn(-c2cc(S(=O)(=O)CCO)ccc2OC(F)F)c2cc(-c3cnn4cccnc34)ncc12 [Example 22]
Output: 5.01 to 50.1 nM

Input: Retrieve IC50 measured for COc1cc(O)c(F)cc1-n1nc(C(=O)NCCCN(C)C)c2cnc(-c3cnn4cccnc34)cc21 [Example 88] and print it.
Output: ≤ 5.01 nM

Input: Specify IC50 for COc1ccc(Cl)cc1-n1nc(C(=O)N[C@H]2C[C@@H](O)C2)c2cnc(-c3cnn4cccnc34)cc21 [Example 34] and stop.
Output: 5.01 to 50.1 nM

Input: Identify measured IC50 corresponding to COc1ccc(F)cc1-n1nc(NCCCN(C)C)c2cnc(Nc3ncc[nH]c3=O)cc21 [Example 97]
Output: 5.01 to 50.1 nM

Input: Answer with the recorded IC50 for the compound listed here: COc1ccc(S(=O)(=O)NCCN2CCN(C)CC2)cc1-n1nc(C)c2cnc(-c3cnn4cccnc34)cc21 [Example 18]
Output: 5.01 to 50.1 nM

Input: Name the recorded IC50 of the compound listed here: COc1ccc(OC)c(-n2nc(C)c3cnc(-c4cnn5cccnc45)cc32)c1 [Example 8]
Output: 5.01 to 50.1 nM

Input: Consider the compound COc1ccc(S(=O)(=O)CCCO)cc1-n1nc(C)c2cnc(-c3cnn4cccnc34)cc21 [Example 9] and give its recorded IC50.
Output: 5.01 to 50.1 nM

Input: Please list IC50 recorded for the compound Cc1nn(-c2cc(SC3CCOCC3)ccc2OC(F)F)c2cc(-c3cnn4cccnc34)ncc12 [Example 72]
Output: 5.01 to 50.1 nM

Input: Write down IC50 measured for item N#CCc1nn(-c2cc(Cl)ccc2OC(F)F)c2cc(-c3cnn4cccnc34)ncc12 [Example 28]
Output: ≤ 5.01 nM
